Target: KRas G12C (Homo sapiens, UniProt P01116, C118S/C51S/C80L/G12C)
Construct: GDP-loaded K-Ras (1-169) G12C, C51S, C80L, C118S
Assay: KRas G12C Modification Assay (LCMS detection of covalent adduct)
Format: binding
Details: 5 μM concentration for 3 hours
Where a name gives a salt, the structure may show the parent alone.
OBSERVATION TYPE: POC (normalized percent of control, covalent modification of KRas G12C)

Identify the reported POC (normalized percent of control, covalent modification of KRas G12C) for the following entry. C=CC(=O)N1CC(CN2C(=O)C(CN3CCCC3)Oc3cc(-c4cc(O)cc5ccccc45)c(Cl)cc32)C1 (stereo not drawn) 104% of control

Identify the reported POC (normalized percent of control, covalent modification of KRas G12C) for the following entry. C=CC(=O)N1CC(CN2C(=O)COc3cc(-c4ccccc4C(F)(F)F)c(Cl)cc32)C1 66% of control

Identify the reported POC (normalized percent of control, covalent modification of KRas G12C) for the following entry. C=CC(=O)N1CC(C(C)N2C(=O)COc3cc(-c4cc(O)cc5ccccc45)c(Cl)cc32)C1 (stereo not drawn) 34% of control

Identify the reported POC (normalized percent of control, covalent modification of KRas G12C) for the following entry. C=CC(=O)N1CC(CN2C(=O)C(CCCN3CCOCC3)Oc3cc(-c4cc(O)cc5ccccc45)c(Cl)cc32)C1 (stereo not drawn) [Example 25, 2,2,2-trifluoroacetate] 93% of control

Identify the reported POC (normalized percent of control, covalent modification of KRas G12C) for the following entry. C=CC(=O)N1CC(CN2C(=O)COc3cc(-c4c(C)ccc5[nH]cnc45)c(Cl)cc32)C1 [Example 15, trifluoroacetate salt] 97% of control

Identify the reported POC (normalized percent of control, covalent modification of KRas G12C) for the following entry. C=CC(=O)N1CC(CN2C(=O)COc3cc(-c4onc5ccccc45)c(Cl)cc32)C1 25% of control

Identify the reported POC (normalized percent of control, covalent modification of KRas G12C) for the following entry. C=CC(=O)N1CC(CN2C(=O)COc3cc(-c4cc(O)cc5ccccc45)c(Br)cc32)C1 88% of control

Identify the reported POC (normalized percent of control, covalent modification of KRas G12C) for the following entry. C=CC(=O)N1CC(CN2C(=O)COc3cc(-c4cc(O)cc5ccccc45)c(C#N)cc32)C1 81% of control

Identify the reported POC (normalized percent of control, covalent modification of KRas G12C) for the following entry. C=CC(=O)N1CC(CN2C(=O)C(CC3CCN(C)CC3)Oc3cc(-c4cc(O)cc5ccccc45)c(Cl)cc32)C1 (stereo not drawn) 99% of control

Identify the reported POC (normalized percent of control, covalent modification of KRas G12C) for the following entry. C=CC(=O)N1CC(CN2C(=O)C(CN3CCC(N(C)C)CC3)Oc3cc(-c4cc(O)cc5ccccc45)c(Cl)cc32)C1 (stereo not drawn) 95% of control

Identify the reported POC (normalized percent of control, covalent modification of KRas G12C) for the following entry. C=CC(=O)N1CC(F)(CN2C(=O)COc3cc(-c4cc(O)cc5ccccc45)c(Cl)cc32)C1 93% of control

* * *

// reported IC50 for each item listed
Biological target: KRas G12C (Homo sapiens, UniProt P01116, G12C)
Construct: NCI-11358 cells (ATCC CRL-5807) express KRas G12C
Experiment: Cellular inhibition of KRas G12C measured by Phospho-ERK in NCI-11358 cells
Conditions: NCI-11358 cells (ATCC CRL-5807), 3 hours; read-out: Inhibition (IC50, pERK (Thr202/Tyr204) signal normalized with GAPDH)

[
  {
    "MOLECULE": "C=CC(=O)N1CC(CN2C(=O)C(CN(C)C)Oc3cc(-c4cc(O)cc5ccccc45)c(Cl)cc32)C1 (stereo not shown)",
    "IC50": "≤ 1000 nM"
  },
  {
    "MOLECULE": "C=CC(=O)N1CC(CN2C(=O)C(CN3CC[C@@H](OC)C3)Oc3cc(-c4cc(O)cc5ccccc45)c(Cl)cc32)C1 (stereo partly shown)",
    "IC50": "≤ 1000 nM"
  },
  {
    "MOLECULE": "C=CC(=O)N1CC(CN2C(=O)[C@H](CCN3CCOCC3)Oc3cc(-c4cc(O)cc5ccccc45)c(Cl)cc32)C1",
    "IC50": "≤ 1000 nM"
  },
  {
    "MOLECULE": "C=CC(=O)N1CC(C(C)N2C(=O)COc3cc(-c4cc(O)cc5ccccc45)c(Cl)cc32)C1 (stereo not shown)",
    "IC50": "> 1000 nM"
  },
  {
    "MOLECULE": "C=CC(=O)N1CC(CN2C(=O)COc3cc(-c4cc(O)cc5ccccc45)c(Br)cc32)C1",
    "IC50": "≤ 1000 nM"
  },
  {
    "MOLECULE": "C=CC(=O)N1CC(CN2C(=O)CSc3cc(-c4cc(O)cc5ccccc45)ccc32)C1",
    "IC50": "> 1000 nM"
  }
]

Report the value of IC50 obtained on KRas G12C (Homo sapiens, UniProt P01116, G12C) for C=CC(=O)N1CC(CN2C(=O)COc3cc(-c4onc5ccccc45)c(Cl)cc32)C1 . > 1000 nM

Report the value of IC50 obtained on KRas G12C (Homo sapiens, UniProt P01116, G12C) for C=CC(=O)N1CC(CN2C(=O)C(CN3CCN(C)CC3)Oc3cc(-c4cc(O)cc5ccccc45)c(Cl)cc32)C1 (stereo not shown) [Example 8, bis(2,2,2-trifluoroacetate)] . ≤ 1000 nM

* * *

// reported POC (normalized percent of control, covalent modification of KRas G12C) for each item listed
Target: KRas G12C (Homo sapiens, UniProt P01116, C118S/C51S/C80L/G12C)
Construct: GDP-loaded K-Ras (1-169) G12C, C51S, C80L, C118S
Test: KRas G12C Modification Assay (LCMS detection of covalent adduct)
Assay type: binding
Details: 5 μM concentration for 3 hours

Before answering, review these 5 worked examples.
[
  {
    "MOLECULE": "C=CC(=O)N1CC(CN2C(=O)C(CN3CCN(C)CC3)Oc3cc(-c4cc(O)cc5ccccc45)c(Cl)cc32)C1 (stereo not shown) [Example 8, bis(2,2,2-trifluoroacetate)]",
    "RESULT": "87% of control"
  },
  {
    "MOLECULE": "C=CC(=O)N1CC(CN2C(=O)COc3cc(-c4[nH]nc(C)c4C)c(Cl)cc32)C1 [Example 38]",
    "RESULT": "72% of control"
  },
  {
    "MOLECULE": "C=CC(=O)N1CC(CN2C(=O)C(CC(C)C)Oc3cc(-c4cc(O)cc5ccccc45)c(Cl)cc32)C1 (stereo not shown) [Example 2]",
    "RESULT": "94% of control"
  },
  {
    "MOLECULE": "C=CC(=O)N1CC(CN2C(=O)COc3cc(-c4cc(O)cc5ccccc45)ccc32)C1 [Example 12]",
    "RESULT": "94% of control"
  },
  {
    "MOLECULE": "C=CC(=O)N1CC(CN2C(=O)C(CN3CCCC3)Oc3cc(-c4cccc5ccccc45)c(Cl)cc32)C1 (stereo not shown) [Example 24, 2,2,2-trifluoroacetate]",
    "RESULT": "86% of control"
  }
]

Identify the reported POC (normalized percent of control, covalent modification of KRas G12C) for the following entry. C=CC(=O)N1CC(CN2C(=O)C(CN(C)C)Oc3cc(-c4cc(O)cc5ccccc45)c(Cl)cc32)C1 (stereo not shown) [Example 27] 94% of control

Identify the reported POC (normalized percent of control, covalent modification of KRas G12C) for the following entry. C=CC(=O)N1CC(CN2C(=O)C(CCCN3CCCC3)Oc3cc(-c4cc(O)cc5ccccc45)c(Cl)cc32)C1 (stereo not shown) [Example 22, 2,2,2-trifluoroacetate] 97% of control

* * *

Molecular target: KRas G12C (Homo sapiens, UniProt P01116, G12C)
Construct: NCI-11358 cells (ATCC CRL-5807) express KRas G12C
Assay: Cellular inhibition of KRas G12C measured by Phospho-ERK in NCI-11358 cells
Details: NCI-11358 cells (ATCC CRL-5807), 3 hours; read-out: Inhibition (IC50, pERK (Thr202/Tyr204) signal normalized with GAPDH)
OBSERVATION TYPE: IC50

Identify the reported IC50 for the following entry. C=CC(=O)N1CC(CN2C(=O)[C@H](CCN(C)C)Oc3cc(-c4cccc5ccccc45)c(Cl)cc32)C1 [Example 33] > 1 µM

Identify the reported IC50 for the following entry. C=CC(=O)N1CC(CN2C(=O)COc3c2cc(Cl)c(-c2cc(O)cc4ccccc24)c3F)C1 [Example 16] > 1 µM

Identify the reported IC50 for the following entry. C=CC(=O)N1CC(CN2C(=O)COc3cc(-c4cc(O)cc5ccccc45)ccc32)C1 [Example 12] > 1 µM

Identify the reported IC50 for the following entry. C=CC(=O)N1CC(CN2C(=O)COc3cc(-c4ccccc4C(F)(F)F)c(Cl)cc32)C1 [Example 37] > 1 µM

Identify the reported IC50 for the following entry. C=CC(=O)N1CC(CN2C(=O)COc3cc(-c4cc(O)cc5ccccc45)c(Cl)cc32)C1 [Example 1] ≤ 1 µM

Identify the reported IC50 for the following entry. C=CC(=O)N1CC(CN2C(=O)C(CC3CCN(C)CC3)Oc3cc(-c4cc(O)cc5ccccc45)c(Cl)cc32)C1 (stereo not shown) [Example 20] ≤ 1 µM

Identify the reported IC50 for the following entry. C=CC(=O)N1CC(CN2C(=O)C(CCCN3CCCC3)Oc3cc(-c4cc(O)cc5ccccc45)c(Cl)cc32)C1 (stereo not shown) [Example 22, 2,2,2-trifluoroacetate] ≤ 1 µM
